Tested on: Yap1 mRNA
Experiment: Antisense inhibition of human Yap1 in A-431 cells by cEt gapmers, single dose (Example 3, RTS36584)
Type: cell-based
Settings: Table 28; Yap1 mRNA as percent of untreated control; 3-10-3 cEt gapmers targeting SEQ ID NO.: 1, and 2
Strand notation (5' to 3'): a small letter for the sugar, then the base; units joined by * are phosphorothioate-linked, units joined directly phosphodiester-linked; [ ] holds rarer units or linkages, { } end groups; capitals alone tell only the bases. k = constrained ethyl (cEt); [5mC] = 5-methylcytosine; d = 2'-deoxy (DNA)
Entry flag: class 1 if YAP1 (% UTC) reaches 20 % UTC; class 0 if it does not.

>>> group_label("1076046 (k[5mC]*kT*kT*dA*dA*dA*dT*dG*dG*dT*dG*d[5mC]*dA*kA*kT*kA; antisense) [compound 1076046]")
"class 1"

q: API: above_or_equal(metric=YAP1 (% UTC), cutoff=20 % UTC) for item 1074670 (antisense kA*kA*kG*dT*dA*dG*d[5mC]*dT*dT*dT*dG*dA*dT*k[5mC]*kT*kT) [compound 1074670]
a: class 1

q: Another: 1074702 (antisense kG*kG*kT*dG*dT*dA*dA*dG*dA*d[5mC]*dA*dA*dG*kT*k[5mC]*kT) [compound 1074702]
a: class 0

q: Another: 1076142 (kA*kT*kA*d[5mC]*dG*dA*dA*dA*dA*dA*dA*dG*d[5mC]*k[5mC]*kA*kA; antisense) [compound 1076142]
a: class 1

q: Another: 1074574 (DNA k[5mC]*kA*kT*dT*dA*dT*dG*dA*dA*d[5mC]*d[5mC]*dT*dA*k[5mC]*kT*k[5mC]) [compound 1074574]
a: class 0

q: Another: 1074798 (kG*k[5mC]*kT*dT*dT*dG*dG*dA*dA*dG*dA*dT*d[5mC]*kT*kG*kA) [compound 1074798]
a: class 0

----------
System: Yap1 mRNA
Assay: Antisense inhibition of human Yap1 in A-431 cells by cEt gapmers, single dose (Example 3, RTS36584)
Assay type: cell-based
Conditions: Table 11; A-431 cells, 5,000 cells per well, free uptake, 2,000 nM oligonucleotide, approx. 48 hours; primer probe set RTS36584; Yap1 mRNA normalized to RIBOGREEN, percent of untreated control
Strand notation (5' to 3'): a small letter for the sugar, then the base; units joined by * are phosphorothioate-linked, units joined directly phosphodiester-linked; [ ] holds rarer units or linkages, { } end groups; capitals alone tell only the bases. k = constrained ethyl (cEt); [5mC] = 5-methylcytosine; d = 2'-deoxy (DNA)
Entry flag: Satisfied if YAP1 (% UTC) reaches 20 % UTC; Not satisfied if it does not.

Would you please look over these solved cases?
>>> group_label("958608 (antisense kT*kG*kA*dT*dA*dG*dG*d[5mC]*dA*d[5mC]*dA*d[5mC]*d[5mC]*k[5mC]*kA*k[5mC]) [Compound 958608]")
"Not satisfied"
>>> group_label("958578 (k[5mC]*kT*kT*dA*dA*dT*d[5mC]*dT*dG*dT*dG*dG*d[5mC]*kT*kA*k[5mC]; antisense) [Compound 958578]")
"Not satisfied"
>>> group_label("958668 (kG*kT*kG*dA*dT*d[5mC]*dT*dG*dT*dG*dA*dG*dA*kG*kG*kT; antisense) [Compound 958668]")
"Not satisfied"
>>> group_label("958808 (kA*kG*k[5mC]*dG*dA*dT*dT*dG*dG*d[5mC]*d[5mC]*dT*d[5mC]*k[5mC]*k[5mC]*kA; antisense) [Compound 958808]")
"Satisfied"
>>> group_label("958438 (antisense k[5mC]*kG*k[5mC]*d[5mC]*d[5mC]*d[5mC]*dG*dG*d[5mC]*dT*d[5mC]*d[5mC]*dA*k[5mC]*kT*kG) [Compound 958438]")
"Satisfied"
>>> group_label("958708 (antisense kA*kT*kG*dT*d[5mC]*dA*dG*dA*dT*dG*dT*d[5mC]*dA*kA*kT*kT) [Compound 958708]")
"Not satisfied"
>>> group_label("958768 (antisense kG*kT*kG*d[5mC]*dA*dA*dG*d[5mC]*dA*dG*dG*dT*dT*k[5mC]*k[5mC]*k[5mC]) [Compound 958768]")
"Not satisfied"
>>> group_label("958653 (kT*kT*kA*d[5mC]*dA*d[5mC]*dA*d[5mC]*dA*dG*dG*d[5mC]*dT*kA*kT*kG; antisense) [Compound 958653]")
"Not satisfied"
>>> group_label("958488 (kA*kG*kG*dA*dA*dT*dG*dG*d[5mC]*dA*dT*d[5mC]*d[5mC]*kA*kT*k[5mC]; antisense) [Compound 958488]")
"Satisfied"
>>> group_label("958663 (k[5mC]*kT*kA*dT*dT*dA*dG*dG*dG*dA*d[5mC]*dT*dG*kA*kA*k[5mC]; antisense) [Compound 958663]")
"Satisfied"

q: API: above_or_equal(metric=YAP1 (% UTC), cutoff=20 % UTC) for item 958553 (k[5mC]*k[5mC]*kA*dT*dT*dA*dT*dT*dA*d[5mC]*dT*d[5mC]*d[5mC]*kT*kG*kT; antisense) [Compound 958553]
a: Not satisfied

q: Another: 958513 (kG*k[5mC]*kG*d[5mC]*dT*dA*d[5mC]*d[5mC]*dA*dT*dT*dT*dT*kA*kA*kA; antisense) [Compound 958513]
a: Satisfied

q: Another: 958508 (kG*kA*kG*dA*dG*d[5mC]*dA*dG*dA*dT*dA*dA*dT*k[5mC]*kG*kA; antisense) [Compound 958508]
a: Not satisfied

q: Another: 958443 (antisense k[5mC]*kT*k[5mC]*d[5mC]*dA*d[5mC]*dG*dG*dG*d[5mC]*d[5mC]*dG*dA*kG*kG*kT) [Compound 958443]
a: Satisfied

q: Another: 958528 (kA*kG*kT*d[5mC]*dT*dT*dG*dT*dA*dA*dG*dT*dA*kA*kG*kA; antisense) [Compound 958528]
a: Not satisfied

q: Another: 958648 (kG*kA*kA*dT*dA*d[5mC]*dT*dG*dA*dG*dT*d[5mC]*dA*kG*kG*kA; antisense) [Compound 958648]
a: Not satisfied

q: Another: 958743 (antisense kG*kA*k[5mC]*dT*dA*dT*dA*dA*dA*dG*dG*dG*dT*kT*kT*kA) [Compound 958743]
a: Satisfied

----------
System: Yap1 mRNA
Experiment: Antisense inhibition of human Yap1 in A-431 cells by cEt gapmers, single dose (Example 2, RTS4814)
Assay type: cell-based
Conditions: Table 6; A-431 cells, 5,000 cells per well, free uptake, 2,000 nM modified oligonucleotide, approx. 48 hours; RTS4814; normalized to RIBOGREEN; Yap1 mRNA relative to untreated control cells
Description: Modified oligonucleotides were designed to target a Yap1 nucleic acid and were tested for their effect on Yap1 mRNA level in vitro. The modified oligonucleotides were tested in a series of experiments that had similar culture conditions. […] After a treatment period of approximately 48 hours, RNA was isolated from the cells and Yap1 mRNA levels were measured by quantitative real-time RTPCR. […] Yap1 mRNA levels were normalized to total RNA content, as measured by RIBOGREEN®. […]
Strand notation (5' to 3'): a small letter for the sugar, then the base; units joined by * are phosphorothioate-linked, units joined directly phosphodiester-linked; [ ] holds rarer units or linkages, { } end groups; capitals alone tell only the bases. k = constrained ethyl (cEt); [5mC] = 5-methylcytosine; d = 2'-deoxy (DNA)
QUANTITY_MEASURED: YAP1 (% UTC)
Enter your answer as a number in % UTC; do not include the unit.

Here is how some substances turned out for YAP1 (% UTC).
>>> measured("716414 (kG*kT*kT*d[5mC]*dA*dT*dT*d[5mC]*d[5mC]*dA*dT*d[5mC]*dT*k[5mC]*k[5mC]*kT; antisense) [Compound 716414]")
59
>>> measured("716399 (kA*kA*kT*dT*dT*dG*d[5mC]*dT*dG*dT*dG*d[5mC]*dT*kG*kG*kG; antisense) [Compound 716399]")
40
>>> measured("716552 (kT*kT*kT*d[5mC]*dT*d[5mC]*dA*dG*dA*dT*dG*dT*dA*k[5mC]*k[5mC]*kA; antisense) [Compound 716552]")
53

We next turn to a different substance, shown below.
q: Please report the recorded YAP1 (% UTC) for 716441 (kG*k[5mC]*k[5mC]*dT*dT*dG*dG*dT*dT*dT*d[5mC]*dA*dG*k[5mC]*kT*kA; antisense) [Compound 716441] .
a: 57

----------
Assay: Cynomolgus monkey tolerability, body and organ weight measurements (Example 34)
Assay type: in vivo
Details: cynomolgus monkeys, 35 mg/kg subcutaneously, necropsy
Entries and their measured Spleen weight follow.
Mention the unit after the number when you answer.

Here is how some substances turned out for Spleen weight.
>>> measured("1198440 (AAGTGTATGTCAGAAG; cEt, 2'-MOE, 5-methylcytosine, phosphorothioate modifications, further chemistry not given here) [compound 1198440]")
"3 g"
>>> measured("1198605 (GTAATATTGCAATCTG; modified gapmer, further chemistry not given here) [compound 1198605]")
"4 g"
>>> measured("1198439 (AGTGTATGTCAGAAGA; sugar, 5-methylcytosine, phosphorothioate modifications, further chemistry not given here) [compound 1198439]")
"3 g"
>>> measured("1197270 (TTAAAGTGTATGTCAG; cEt gapmer with 2'-OMe nucleoside, phosphorothioate, further chemistry not given here) [compound 1197270]")
"4 g"

q: Please report the recorded Spleen weight for 1198728 (TATTAGAGTATGTGGC; modified gapmer, further chemistry not given here) [compound 1198728] .
a: 5 g
